B1: TPR t1 (parent)
chain: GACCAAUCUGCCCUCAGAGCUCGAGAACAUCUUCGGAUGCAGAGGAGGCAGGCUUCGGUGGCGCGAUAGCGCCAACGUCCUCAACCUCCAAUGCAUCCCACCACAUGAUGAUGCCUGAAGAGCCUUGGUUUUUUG

Variants of: B1
Assay: polymerase ribozyme fitness, log enrichment relative to wild type (log ratio); higher = more active; in vitro selection for triplet polymerase activity
Readout Kind: polymerase ribozyme fitness (log ratio)
Number only, please.

For reference, reported polymerase ribozyme fitness (log ratio) for A46G A74C U133A stands at -0.745

Notebook: G44U A46C , polymerase ribozyme fitness (log ratio) read as -2.3

The variant listed as C49U A84U C88A shows polymerase ribozyme fitness (log ratio) equal to -1.82

response.value for A5U U129A (field: polymerase ribozyme fitness (log ratio)) = -1.34

Record A95G U112C C124U , field polymerase ribozyme fitness (log ratio): 1.01

Continuing:
Value of polymerase ribozyme fitness (log ratio) reported for the variant G122A C123A is -0.665

Summary for this variant, C40G G71U C79A : polymerase ribozyme fitness (log ratio) is -2.32

response.value for C8G G63A C73U U78C C123G (field: polymerase ribozyme fitness (log ratio)) = 0.795

response.value for G77A C89A C94U G122A (field: polymerase ribozyme fitness (log ratio)) = -4.01
